# procedure summary: Antiproliferative activity against human LL cells in culture medium with 10% lipid-reduced serum after 4 days in presence of palmitate by ATP-Glo assay
# Format: functional, cell-based
# condition context: 96 h
observation type: pEC50
Conceptually, pEC50 converts a concentration in mol/L into minus its log10.

Which measured pEC50 value corresponds to Cn1cc(-c2ccc(-c3ccc(C4=NC5(CC5)C(=O)N4C[C@@H]4CCN(C(=O)C5CC5)C4)cc3)cc2)cn1 ? 5.03

###

# procedure summary: Permeability in human Caco2 cells
# Type: ADME, cell-based
# condition context: Caco-2, read-out: permeability
observation type: Papp

Papp lookup needed for Cn1cc(-c2ccc(-c3ccc(C4=NC5(CC5)C(=O)N4C[C@@H]4CCN(C(=O)C5CC5)C4)cc3)cc2)cn1 , thanks. 7.1 ×10⁻⁶ cm/s
